Biological target: Tyrosine-protein kinase BTK (Homo sapiens, UniProt Q06187, C481S)
Sequence (Q06187 2-659 C481S limits assumed): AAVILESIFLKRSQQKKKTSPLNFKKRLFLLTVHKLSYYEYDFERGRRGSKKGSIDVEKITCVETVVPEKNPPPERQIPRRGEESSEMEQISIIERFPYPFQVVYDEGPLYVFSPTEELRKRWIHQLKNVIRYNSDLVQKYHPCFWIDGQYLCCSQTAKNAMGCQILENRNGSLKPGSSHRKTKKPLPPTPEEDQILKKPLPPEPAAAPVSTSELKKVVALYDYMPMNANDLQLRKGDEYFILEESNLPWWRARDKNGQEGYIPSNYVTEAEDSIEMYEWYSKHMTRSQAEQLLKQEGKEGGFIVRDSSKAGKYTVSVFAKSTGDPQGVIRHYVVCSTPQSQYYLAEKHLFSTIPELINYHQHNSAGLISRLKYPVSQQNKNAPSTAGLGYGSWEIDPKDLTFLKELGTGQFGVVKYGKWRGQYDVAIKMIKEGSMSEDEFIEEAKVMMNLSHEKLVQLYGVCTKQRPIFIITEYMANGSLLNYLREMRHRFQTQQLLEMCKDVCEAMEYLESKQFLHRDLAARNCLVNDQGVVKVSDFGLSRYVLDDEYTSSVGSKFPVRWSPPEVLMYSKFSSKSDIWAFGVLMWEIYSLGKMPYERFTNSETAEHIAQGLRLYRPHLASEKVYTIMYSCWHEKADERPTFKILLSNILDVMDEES
Assay: Inhibition of recombinant full-length N-terminal His-tagged human BTK C481S mutant expressed in baculovirus infected Sf9 insect cells using Poly(Glu, Tyr) 4:1 as substrate after 1 hr by ELISA
measured attribute: pIC50
In textbook form, pIC50 equals minus log to base ten of the concentration in mol/L.

The compound identified as C=CC(=O)NC1Cn2c(c(-c3ccc(Oc4ccccc4)cc3)c3c(N)ncnc32)C1=C (racemic) registered its pIC50 at 6.33

----------
Target: Ephrin type-A receptor 2 (Homo sapiens, UniProt P29317)
Sequence (P29317 whole entry): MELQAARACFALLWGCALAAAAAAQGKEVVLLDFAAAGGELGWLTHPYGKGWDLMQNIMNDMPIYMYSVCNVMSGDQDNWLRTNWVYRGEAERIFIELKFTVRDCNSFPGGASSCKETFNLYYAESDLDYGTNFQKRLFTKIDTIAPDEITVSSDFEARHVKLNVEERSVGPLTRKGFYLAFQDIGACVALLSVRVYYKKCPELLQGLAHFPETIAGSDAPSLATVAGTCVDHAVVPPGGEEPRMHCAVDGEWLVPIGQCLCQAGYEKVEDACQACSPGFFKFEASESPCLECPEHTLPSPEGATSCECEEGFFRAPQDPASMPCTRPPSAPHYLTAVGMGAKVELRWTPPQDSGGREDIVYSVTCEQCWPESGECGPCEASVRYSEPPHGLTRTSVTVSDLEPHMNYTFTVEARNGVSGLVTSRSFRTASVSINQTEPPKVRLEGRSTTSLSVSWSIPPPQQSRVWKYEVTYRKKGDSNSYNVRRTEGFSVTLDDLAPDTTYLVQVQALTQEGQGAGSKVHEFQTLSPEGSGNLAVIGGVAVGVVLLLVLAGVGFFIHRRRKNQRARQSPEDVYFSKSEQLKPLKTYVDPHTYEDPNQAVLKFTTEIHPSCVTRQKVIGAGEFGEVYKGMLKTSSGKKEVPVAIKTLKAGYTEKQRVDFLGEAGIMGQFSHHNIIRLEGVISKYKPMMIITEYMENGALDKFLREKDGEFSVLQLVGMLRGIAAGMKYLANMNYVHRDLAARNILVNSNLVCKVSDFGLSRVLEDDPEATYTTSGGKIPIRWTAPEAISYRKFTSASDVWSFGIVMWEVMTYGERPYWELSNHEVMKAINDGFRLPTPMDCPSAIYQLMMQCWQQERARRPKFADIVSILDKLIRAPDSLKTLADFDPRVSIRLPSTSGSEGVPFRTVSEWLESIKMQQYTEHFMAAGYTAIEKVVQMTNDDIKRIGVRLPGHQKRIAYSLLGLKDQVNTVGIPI
Test: Inhibition of recombinant human EPHA2 using Poly(Glu, Tyr) 4:1 as substrate after 1 hr by ELISA
measured attribute: IC50

Entry C=CC(=O)N[C@@H]1Cn2c(c(-c3ccc(Oc4ccccc4)cc3)c3c(N)ncnc32)C1=C under Ephrin type-A receptor 2 (Homo sapiens, UniProt P29317) had IC50 of > 1 µM

----------
Biological target: Tyrosine-protein kinase TXK (Homo sapiens, UniProt P42681)
Sequence (P42681 whole entry): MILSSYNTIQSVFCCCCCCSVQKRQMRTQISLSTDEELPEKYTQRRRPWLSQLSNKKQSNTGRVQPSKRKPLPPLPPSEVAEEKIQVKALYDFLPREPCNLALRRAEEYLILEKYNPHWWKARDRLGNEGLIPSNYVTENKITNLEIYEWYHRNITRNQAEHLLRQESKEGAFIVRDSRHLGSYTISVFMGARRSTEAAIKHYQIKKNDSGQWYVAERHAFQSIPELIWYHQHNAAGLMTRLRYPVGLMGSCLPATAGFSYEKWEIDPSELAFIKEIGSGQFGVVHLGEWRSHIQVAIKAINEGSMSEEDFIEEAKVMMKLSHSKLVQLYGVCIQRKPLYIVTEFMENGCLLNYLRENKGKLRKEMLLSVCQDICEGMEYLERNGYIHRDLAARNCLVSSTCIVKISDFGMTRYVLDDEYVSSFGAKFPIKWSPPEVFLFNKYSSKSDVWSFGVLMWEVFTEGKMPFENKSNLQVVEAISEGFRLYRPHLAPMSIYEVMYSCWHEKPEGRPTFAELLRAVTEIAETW
Experiment: Inhibition of recombinant human TXK using Poly(Glu, Tyr) 4:1 as substrate after 1 hr by ELISA
measured attribute: pIC50
In textbook form, pIC50 equals minus log to base ten of the concentration in mol/L.

Entry C=CC(=O)N[C@@H]1Cn2c(c(-c3ccc(Oc4ccccc4)cc3)c3c(N)ncnc32)C1=C under Tyrosine-protein kinase TXK (Homo sapiens, UniProt P42681) had pIC50 of 8.60

----------
Biological target: Platelet-derived growth factor receptor beta (Homo sapiens, UniProt P09619)
Sequence (P09619 whole entry): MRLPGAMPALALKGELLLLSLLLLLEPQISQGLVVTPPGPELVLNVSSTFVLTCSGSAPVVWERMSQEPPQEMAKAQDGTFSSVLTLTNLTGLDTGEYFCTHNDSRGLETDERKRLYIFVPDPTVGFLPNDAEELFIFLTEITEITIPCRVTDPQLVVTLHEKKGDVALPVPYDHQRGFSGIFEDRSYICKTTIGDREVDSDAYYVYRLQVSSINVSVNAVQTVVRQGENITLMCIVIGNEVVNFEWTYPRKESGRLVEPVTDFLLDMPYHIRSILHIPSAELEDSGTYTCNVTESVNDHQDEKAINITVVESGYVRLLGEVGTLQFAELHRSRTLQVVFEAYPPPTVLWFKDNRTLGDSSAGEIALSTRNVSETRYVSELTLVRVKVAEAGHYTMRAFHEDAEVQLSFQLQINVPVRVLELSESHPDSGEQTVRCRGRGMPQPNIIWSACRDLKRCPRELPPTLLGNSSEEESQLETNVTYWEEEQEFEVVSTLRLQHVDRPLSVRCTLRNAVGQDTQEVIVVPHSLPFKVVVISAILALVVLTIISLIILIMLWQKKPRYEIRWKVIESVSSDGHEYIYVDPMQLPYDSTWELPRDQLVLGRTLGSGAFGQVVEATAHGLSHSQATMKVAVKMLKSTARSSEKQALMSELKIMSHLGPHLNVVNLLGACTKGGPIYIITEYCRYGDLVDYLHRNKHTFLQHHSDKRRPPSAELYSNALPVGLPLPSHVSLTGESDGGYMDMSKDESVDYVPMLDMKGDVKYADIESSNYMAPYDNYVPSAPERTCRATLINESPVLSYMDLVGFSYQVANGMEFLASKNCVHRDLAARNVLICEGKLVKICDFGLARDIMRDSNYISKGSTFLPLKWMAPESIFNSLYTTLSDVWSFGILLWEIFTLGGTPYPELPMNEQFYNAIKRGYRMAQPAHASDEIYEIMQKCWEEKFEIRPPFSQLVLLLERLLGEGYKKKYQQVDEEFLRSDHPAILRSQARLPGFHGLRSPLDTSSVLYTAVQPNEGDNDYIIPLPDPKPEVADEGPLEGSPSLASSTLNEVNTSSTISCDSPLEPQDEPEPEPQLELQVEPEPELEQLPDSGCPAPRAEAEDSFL
Assay: Inhibition of recombinant human PDGFR-beta using Poly(Glu, Tyr) 4:1 as substrate after 1 hr by ELISA
measured attribute: pIC50
In textbook form, pIC50 equals minus log to base ten of the concentration in mol/L.

The compound identified as C=CC(=O)N[C@@H]1Cn2c(c(-c3ccc(Oc4ccccc4)cc3)c3c(N)ncnc32)C1=C registered its pIC50 at 6.67
